target: CDK9/cyclin T1 (Homo sapiens); assay: Kinase assay, radioactive phosphate incorporation, CDK9/cyclin T1; details: 100 μM ATP, 30° C.; read-out: Kinase inhibition IC50 CDK9/cyclin T1
Hi! Just check whether IC50 is below 200 nM. Below gives t, equal or above gives f.

compound	class assignment
O=[N+]([O-])c1cccc(Nc2nccc(-c3cc(F)ccc3F)n2)c1 [Compound 123]	t
CN(C)Cc1cccc(-c2ccnc(Nc3cccc(O)c3)n2)c1 [Compound 80]	t
O=[N+]([O-])c1cccc(Nc2nccc(-c3cccc(C(F)(F)F)c3)n2)c1 [Compound 97]	t
CCOc1ccc(-c2ccnc(Nc3cccc(O)c3)n2)cc1 [Compound 109]	t
OCc1cc(CO)cc(Nc2nccc(-c3cccc(CN4CCCCC4CO)c3)n2)c1 (stereo not drawn) [Compound 107]	f
CN(c1cccc(-c2ccnc(Nc3ccc(O)cc3)n2)c1)S(C)(=O)=O [Compound 131]	t
O=[N+]([O-])c1cccc(Nc2nccc(-c3ccc(CN4CCCCC4CO)cc3)n2)c1 (stereo not drawn) [Compound 127]	f
O=[N+]([O-])c1cccc(Nc2nccc(-c3cccc(O)c3)n2)c1 [Compound 55]	t
CN(C)Cc1cccc(-c2ccnc(Nc3cccc([N+](=O)[O-])c3)n2)c1 [Compound 71]	t

----------
tested on: A549; assay: 72-h MTT cytotoxicity assay, A549; assay type: cell-based; settings: Homo sapiens, read-out: 72-h MTT IC50 A549, A549 cell line
Hi! Just check whether IC50 is below 10 µM. Below gives Fulfilled, equal or above gives Not fulfilled.

compound	system tested	class assignment
CS(=O)(=O)NCc1cccc(-c2ccnc(Nc3cccc([N+](=O)[O-])c3)n2)c1 [Compound 40]	A549	Fulfilled
c1ccc(Nc2nccc(-c3ccccc3)n2)cc1 [Compound 37, Phenyl-(4-phenyl-pyrimidin-2-yl)-amine]	A549	Not fulfilled
CCN(C(C)=O)c1cccc(-c2ccnc(Nc3ccc([N+](=O)[O-])cc3)n2)c1 [Compound 24]	A549	Not fulfilled
O=[N+]([O-])c1cccc(Nc2nccc(-c3cccc(CNCc4ccccc4)c3)n2)c1 [Compound 27]	A549	Not fulfilled
COc1ccc(Nc2nccc(-c3cccc(CN(C)C)c3)n2)cn1 [Compound 83]	A549	Fulfilled
COc1ccc(Nc2nccc(-c3cccc(Cn4cncn4)c3)n2)cn1 [Compound 50]	A549	Not fulfilled
CCNc1cccc(-c2ccnc(Nc3ccc([N+](=O)[O-])cc3)n2)c1 [Compound 26]	A549	Fulfilled
OCC1CCCCN1Cc1cccc(-c2ccnc(Nc3ccc(N4CCOCC4)cc3)n2)c1 (centres unmarked) [Compound 101]	A549	Not fulfilled

----------
Listed below: IC50 values for each entry.
molecular target: CDK9/cyclin T1 (Homo sapiens); assay: Kinase assay, radioactive phosphate incorporation, CDK9/cyclin T1; details: 100 μM ATP, 30° C.; read-out: Kinase inhibition IC50 CDK9/cyclin T1

compound	units text	relation qualifier	IC50
O=[N+]([O-])c1cccc(Nc2nccc(-c3cccc(CN4CCCC(CO)C4)c3)n2)c1 (stereo not shown) [Compound 105]	µM	=	0.01
O=[N+]([O-])c1cccc(Nc2nccc(-c3ccc(Cl)c(Cn4cncn4)c3)n2)c1 [Compound 47]	µM	=	1.3
O=[N+]([O-])c1cccc(Nc2nccc(-c3cccc(CNCc4ccccc4)c3)n2)c1 [Compound 27]	µM	=	2
Oc1ccc(Nc2nccc(-c3cccc(O)c3)n2)cc1 [Compound 122]	µM	=	0.19
Oc1cccc(Nc2nccc(-c3cccc(O)c3)n2)c1 [Compound 56]	µM	=	0.07
COc1ccc(-c2ccnc(Nc3cccc(F)c3)n2)cc1 [Compound 119]	µM	=	0.04
O=[N+]([O-])c1cccc(Nc2nccc(-c3cccc(Cl)c3)n2)c1 [Compound 112]	µM	=	0.07
O=[N+]([O-])c1cccc(Nc2nccc(-c3ccc(CCn4cncn4)cc3)n2)c1 [Compound 126]	µM	=	0.09
COc1ccc(Nc2nccc(-c3cccc(CO)c3)n2)cn1 [Compound 125]	µM	=	0.12
COc1ccc(OC)c(-c2ccnc(Nc3ccc(OC)nc3)n2)c1 [Compound 52]	µM	=	16
COc1cccc(-c2ccnc(Nc3cccc([N+](=O)[O-])c3)n2)c1 [Compound 87]	µM	=	0.003
CCN(CC)Cc1cccc(-c2ccnc(Nc3cccc([N+](=O)[O-])c3)n2)c1 [Compound 84]	µM	=	0.004
OCC1CCCCN1Cc1cccc(-c2ccnc(Nc3ccc(O)cc3)n2)c1 (stereo not shown) [Compound 106]	µM	=	0.19
CN(C)c1ccc(Nc2nccc(-c3cccc(Cn4cncn4)c3)n2)cc1 [Compound 43]	µM	=	0.53
COc1ccc(-c2ccnc(Nc3cccc(O)c3)n2)cc1 [Compound 76]	µM	<	0.001
O=[N+]([O-])c1cccc(Nc2nccc(-c3cccc(CN4CCCC(CCO)C4)c3)n2)c1 (stereo not shown) [Compound 100]	µM	=	0.002
COc1ccc(Nc2nccc(-c3cccc(Cn4ccnc4)c3)n2)cn1 [Compound 59]	µM	=	0.04
Oc1cccc(Nc2nccc(-c3cc(F)ccc3F)n2)c1 [Compound 114]	µM	=	0.12
COc1ccc(-c2ccnc(Nc3ccc(OC)nc3)n2)cc1 [Compound 124]	µM	=	0.02

----------
target: CDK9/cyclin T1 (Homo sapiens, UniProt P50750); assay: Kinase assay, radioactive phosphate incorporation, CDK9/cyclin T1; settings: 100 μM ATP, 30° C.; read-out: Kinase inhibition IC50 CDK9/cyclin T1
Sequence (P50750 whole entry, species assumed): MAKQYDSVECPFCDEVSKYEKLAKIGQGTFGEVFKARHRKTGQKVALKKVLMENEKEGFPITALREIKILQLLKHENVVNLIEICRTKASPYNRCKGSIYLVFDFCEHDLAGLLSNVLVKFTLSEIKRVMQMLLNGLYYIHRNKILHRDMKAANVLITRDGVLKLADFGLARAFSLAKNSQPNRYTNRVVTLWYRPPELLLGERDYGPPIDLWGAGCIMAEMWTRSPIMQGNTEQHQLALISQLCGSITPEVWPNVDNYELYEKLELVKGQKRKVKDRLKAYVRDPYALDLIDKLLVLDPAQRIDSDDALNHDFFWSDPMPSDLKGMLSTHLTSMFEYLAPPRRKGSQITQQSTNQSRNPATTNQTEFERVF
Sequence (O60563 whole entry partner, species assumed): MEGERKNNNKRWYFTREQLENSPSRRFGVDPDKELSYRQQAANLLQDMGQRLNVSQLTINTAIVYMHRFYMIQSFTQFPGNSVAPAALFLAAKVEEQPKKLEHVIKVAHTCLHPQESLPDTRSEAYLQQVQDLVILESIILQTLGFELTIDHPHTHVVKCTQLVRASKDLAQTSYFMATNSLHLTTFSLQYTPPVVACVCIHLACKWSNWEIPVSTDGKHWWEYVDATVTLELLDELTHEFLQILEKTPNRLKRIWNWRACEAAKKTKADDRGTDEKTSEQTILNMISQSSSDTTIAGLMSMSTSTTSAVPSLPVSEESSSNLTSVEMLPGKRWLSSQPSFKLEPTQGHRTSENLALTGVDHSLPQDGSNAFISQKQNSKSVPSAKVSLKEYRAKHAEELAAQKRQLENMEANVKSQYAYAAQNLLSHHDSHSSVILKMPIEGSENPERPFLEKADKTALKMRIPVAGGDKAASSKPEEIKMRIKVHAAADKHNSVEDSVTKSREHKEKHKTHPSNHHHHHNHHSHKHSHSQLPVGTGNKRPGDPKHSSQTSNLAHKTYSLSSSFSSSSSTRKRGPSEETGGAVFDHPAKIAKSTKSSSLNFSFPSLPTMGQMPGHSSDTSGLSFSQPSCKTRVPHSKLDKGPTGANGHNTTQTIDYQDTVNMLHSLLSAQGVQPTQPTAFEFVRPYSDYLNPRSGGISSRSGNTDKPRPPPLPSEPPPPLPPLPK
Listed below: IC50 values for each entry.

compound structure	units text	IC50
O=[N+]([O-])c1cccc(Nc2nccc(-c3cccc(Cn4ccnc4)c3)n2)c1	nM	44
CCNc1cccc(-c2ccnc(Nc3ccc(OC)cc3)n2)c1	nM	5
Oc1ccc(Nc2nccc(-c3ccc(Cl)c(Cl)c3)n2)cc1	nM	5400
O=[N+]([O-])c1ccc(Nc2nccc(-c3cccc(Cn4cncn4)c3)n2)cc1	nM	920
Oc1ccc(Nc2nccc(-c3cccc(C(F)(F)F)c3)n2)cc1	nM	80

----------
biological target: CDK7/cyclin H (Homo sapiens); test: Kinase assay, radioactive phosphate incorporation, CDK7/cyclin H; conditions: 100 μM ATP, 30° C.; read-out: Kinase inhibition IC50 CDK7/cyclin H
Sequence (P50613 whole entry, species assumed): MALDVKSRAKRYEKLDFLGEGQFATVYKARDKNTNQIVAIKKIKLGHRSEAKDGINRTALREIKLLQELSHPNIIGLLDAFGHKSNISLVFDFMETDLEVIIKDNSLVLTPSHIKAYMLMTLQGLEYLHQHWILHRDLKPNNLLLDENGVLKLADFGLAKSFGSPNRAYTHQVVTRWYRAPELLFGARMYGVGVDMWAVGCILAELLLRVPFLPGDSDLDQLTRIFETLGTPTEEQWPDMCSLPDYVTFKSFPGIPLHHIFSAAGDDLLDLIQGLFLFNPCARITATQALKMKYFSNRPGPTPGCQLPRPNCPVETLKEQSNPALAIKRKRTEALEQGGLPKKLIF
Sequence (P51946 whole entry partner, species assumed): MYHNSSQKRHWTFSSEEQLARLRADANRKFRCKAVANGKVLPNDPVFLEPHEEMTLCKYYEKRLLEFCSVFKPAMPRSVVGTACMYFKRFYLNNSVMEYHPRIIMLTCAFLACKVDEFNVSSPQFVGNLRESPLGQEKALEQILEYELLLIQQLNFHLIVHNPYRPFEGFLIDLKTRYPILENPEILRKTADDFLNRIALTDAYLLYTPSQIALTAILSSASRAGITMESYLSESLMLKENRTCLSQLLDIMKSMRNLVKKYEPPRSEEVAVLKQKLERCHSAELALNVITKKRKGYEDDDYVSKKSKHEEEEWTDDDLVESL
pIC50: −log10 of the molar value.
// label = 1 (yes) if pIC50 is not less than 6, otherwise 0 (no)

compound	class assignment
Cc1ccc(Nc2nccc(-c3cccc(CN4CCCCC4CO)c3)n2)cc1[N+](=O)[O-] (stereo not drawn) [Compound 108]	1 (yes)
CN1CCN(Cc2cccc(-c3ccnc(Nc4cccc([N+](=O)[O-])c4)n3)c2)CC1 [Compound 54]	1 (yes)
O=[N+]([O-])c1cccc(Nc2nccc(-c3cccc(O)c3)n2)c1 [Compound 55]	1 (yes)
COc1ccc(Nc2nccc(-c3cccc(O)c3)n2)cn1 [Compound 74]	0 (no)

----------
target: CDK4/cyclin D1 (Homo sapiens, UniProt P11802); test: Kinase assay, radioactive phosphate incorporation, CDK4/cyclin D1; details: 100 μM ATP, 30° C.; read-out: Kinase inhibition IC50 CDK4/cyclin D1
Sequence (P11802 whole entry, species assumed): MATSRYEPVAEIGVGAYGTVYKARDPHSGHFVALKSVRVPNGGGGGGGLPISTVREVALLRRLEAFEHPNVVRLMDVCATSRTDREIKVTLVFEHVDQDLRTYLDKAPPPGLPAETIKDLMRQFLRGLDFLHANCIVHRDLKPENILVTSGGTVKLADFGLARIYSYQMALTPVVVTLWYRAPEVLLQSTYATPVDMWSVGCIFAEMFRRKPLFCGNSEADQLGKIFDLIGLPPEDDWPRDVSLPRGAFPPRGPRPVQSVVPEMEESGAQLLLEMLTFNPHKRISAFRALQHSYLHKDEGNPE
Sequence (P24385 whole entry partner, species assumed): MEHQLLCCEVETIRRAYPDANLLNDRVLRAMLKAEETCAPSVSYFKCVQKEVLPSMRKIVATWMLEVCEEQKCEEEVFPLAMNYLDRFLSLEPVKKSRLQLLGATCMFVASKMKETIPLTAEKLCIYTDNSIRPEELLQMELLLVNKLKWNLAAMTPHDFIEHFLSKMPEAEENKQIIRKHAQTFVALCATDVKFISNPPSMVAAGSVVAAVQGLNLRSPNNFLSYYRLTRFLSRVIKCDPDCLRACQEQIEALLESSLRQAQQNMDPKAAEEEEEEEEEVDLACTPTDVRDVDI
pIC50: −log10 of the molar value.

compound structure	pIC50
Oc1ccc(Nc2nccc(-c3ccc(Cl)c(Cl)c3)n2)cc1	4.54
CN(C)c1ccc(Nc2nccc(-c3ccc(Cl)c(Cl)c3)n2)cc1	4.70
COc1ccc(-c2ccnc(Nc3cccc(O)c3)n2)cc1	8.00
O=[N+]([O-])c1cccc(Nc2nccc(-c3ccc(Cl)c(Cn4cncn4)c3)n2)c1	4.55
Oc1cccc(Nc2nccc(-c3cccc(Cn4cncn4)c3)n2)c1	5.74

----------
target: UniProtKB P49841
Sequence (P49841 whole entry, species assumed): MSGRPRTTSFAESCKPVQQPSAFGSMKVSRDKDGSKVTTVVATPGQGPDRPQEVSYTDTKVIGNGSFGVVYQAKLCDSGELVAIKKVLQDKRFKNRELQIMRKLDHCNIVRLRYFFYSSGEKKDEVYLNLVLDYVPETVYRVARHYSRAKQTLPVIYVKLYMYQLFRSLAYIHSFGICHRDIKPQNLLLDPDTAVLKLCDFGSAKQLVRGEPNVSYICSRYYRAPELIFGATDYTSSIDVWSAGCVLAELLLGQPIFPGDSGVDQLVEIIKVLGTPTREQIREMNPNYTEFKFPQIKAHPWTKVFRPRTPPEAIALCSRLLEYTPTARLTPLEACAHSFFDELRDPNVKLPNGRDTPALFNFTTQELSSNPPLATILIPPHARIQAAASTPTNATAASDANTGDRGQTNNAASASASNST
Hi! Just check whether IC50 is below 50 nM. Below gives Condition met, equal or above gives Condition not met.

compound structure	class assignment
CC(=O)Nc1cccc(-c2ccnc(Nc3cccc(CO)c3)n2)c1	Condition not met
COc1ccc(Nc2nccc(-c3cccc(Cn4cncn4)c3)n2)cn1	Condition not met
CN(c1cccc(-c2ccnc(Nc3cccc([N+](=O)[O-])c3)n2)c1)S(C)(=O)=O	Condition not met
COc1ccc(Nc2nccc(-c3cccc(CN(C)C)c3)n2)cn1	Condition not met
Oc1cccc(Nc2nccc(-c3cccc(CNCc4ccccc4)c3)n2)c1	Condition not met
COc1ccc(-c2ccnc(Nc3cccc(O)c3)n2)cc1	Condition met
O=[N+]([O-])c1cccc(Nc2nccc(-c3cccc(C(F)(F)F)c3)n2)c1	Condition not met
O=[N+]([O-])c1ccc(Nc2nccc(-c3cccc(Cn4cncn4)c3)n2)cc1	Condition met

----------
target: CDK7/cyclin H (Homo sapiens); assay: Kinase assay, radioactive phosphate incorporation, CDK7/cyclin H; settings: 100 μM ATP, 30° C.; read-out: Kinase inhibition IC50 CDK7/cyclin H
pIC50: −log10 of the molar value.
Listed below: pIC50 values for each entry.

molecule	pIC50
COc1ccc(Nc2nccc(-c3cccc(Cn4ccnc4)c3)n2)cn1 [Compound 59]	6.30
CCN(C(C)=O)c1cccc(-c2ccnc(Nc3ccc(OC)cc3)n2)c1 [Compound 23]	5.37
O=[N+]([O-])c1cccc(Nc2nccc(-c3cccc(CO)c3)n2)c1 [Compound 91]	6.26
CC(=O)Nc1cccc(-c2ccnc(Nc3cccc(O)c3)n2)c1 [Compound 67]	5.36
O=[N+]([O-])c1cccc(Nc2nccc(-c3cccc(CN4CCCC(CO)C4)c3)n2)c1 (stereo not drawn) [Compound 105]	7.10
O=[N+]([O-])c1cccc(Nc2nccc(-c3cccc(Cn4ccnc4)c3)n2)c1 [Compound 29]	7.15
Nc1cccc(-c2ccnc(Nc3cccc([N+](=O)[O-])c3)n2)c1 [Compound 19]	5.60
CN(C)Cc1cccc(-c2ccnc(Nc3cccc(O)c3)n2)c1 [Compound 80]	6.14
COc1ccc(Nc2nccc(-c3cccc(N(C)S(C)(=O)=O)c3)n2)cn1 [Compound 132]	5.41
OCc1cccc(Nc2nccc(-c3cccc(O)c3)n2)c1 [Compound 72]	5.77
COc1ccc(Nc2nccc(-c3cccc(Cn4cncn4)c3)n2)cn1 [Compound 50]	6.19
OCC1CCCCN1Cc1cccc(-c2ccnc(Nc3ccc(N4CCOCC4)cc3)n2)c1 (stereo not drawn) [Compound 101]	5.80
CN(C)c1ccc(Nc2nccc(-c3cccc(Cn4cncn4)c3)n2)cc1 [Compound 43]	5.85
Clc1ccc(Nc2nccc(-c3cccc(CNCc4ccccc4)c3)n2)cn1 [Compound 48]	5.77
c1cc(Cn2cncn2)cc(-c2ccnc(Nc3ccc(N4CCOCC4)cc3)n2)c1 [Compound 32]	5.40
CN(C)Cc1cccc(-c2ccnc(Nc3ccc(N4CCOCC4)cc3)n2)c1 [Compound 82]	5.54
O=[N+]([O-])c1cccc(Nc2nccc(-c3cccc(CNCc4ccccc4)c3)n2)c1 [Compound 27]	5.22
Oc1ccc(Nc2nccc(-c3cccc(Cn4cncn4)c3)n2)cc1 [Compound 33]	5.96
COc1ccc(Nc2nccc(-c3cccc(CN4CCCCC4CO)c3)n2)cn1 (stereo not drawn) [Compound 102]	5.85
O=[N+]([O-])c1cccc(Nc2nccc(-c3cccc(CN4CCCC(CCO)C4)c3)n2)c1 (stereo not drawn) [Compound 100]	7.15
CS(=O)(=O)c1cccc(Nc2nccc(-c3cccc(Cn4cncn4)c3)n2)c1 [Compound 104]	5.19
CN(c1cccc(-c2ccnc(Nc3cccc([N+](=O)[O-])c3)n2)c1)S(C)(=O)=O [Compound 129]	6.19
CN(C)Cc1cccc(-c2ccnc(Nc3cccc([N+](=O)[O-])c3)n2)c1 [Compound 71]	7.52
NC(=O)C1CCCN(Cc2cccc(-c3ccnc(Nc4cccc([N+](=O)[O-])c4)n3)c2)C1 (stereo not drawn) [Compound 99]	6.74
Oc1cccc(Nc2nccc(-c3cccc(Cn4cncn4)c3)n2)c1 [Compound 34]	5.92
O=[N+]([O-])c1cccc(Nc2nccc(-c3cccc(Cn4cncn4)c3)n2)c1 [Compound 30]	6.24
OCC1CCCCN1Cc1cccc(-c2ccnc(Nc3ccc(O)cc3)n2)c1 (stereo not drawn) [Compound 106]	5.77
O=[N+]([O-])c1ccc(Nc2nccc(-c3cccc(Cn4cncn4)c3)n2)cc1 [Compound 41]	5.26
COc1ccc(OC)c(-c2ccnc(Nc3ccc(O)cc3)n2)c1 [Compound 45]	4.80
OCc1cccc(-c2ccnc(Nc3cccc(O)c3)n2)c1 [Compound 115]	5.51
Oc1cccc(Nc2nccc(-c3cccc(O)c3)n2)c1 [Compound 56]	5.68
CC(=O)Nc1cccc(-c2ccnc(Nc3cccc(CO)c3)n2)c1 [Compound 60]	5.42
CCNc1cccc(-c2ccnc(Nc3ccc(OC)cc3)n2)c1 [Compound 25]	6.03
COc1cccc(Nc2nccc(-c3cccc(Cn4cncn4)c3)n2)c1 [Compound 35]	6.24
COc1ccc(-c2ccnc(Nc3cccc([N+](=O)[O-])c3)n2)cc1 [Compound 94]	6.00
OCC1CCCCN1Cc1cccc(-c2ccnc(Nc3cccc(O)c3)n2)c1 (stereo not drawn) [Compound 103]	6.19
